- Tested system: T1, MAGE-A4 peptide on HLA-A*02:01 (human)
- T1 peptide: KVLEHVVRV
- Assay method text: multimer staining
Reported property: binding result

- PN41690 (TCR, V domains shown, stained with anti-mouse TCR constant region H57-597; full-length chains on transfected CHO cells; also called TCR No. 24) V domain 1: AQTVTQSQPEMSVQEAETVTLSCTYDTSESDYYLFWYKQPPSRQMILVIRQEAYKQQNATENRFSVNFQKAAKSFSLKISDSQLGDAAMYFCAYRSAIGNQFYFGTGTSLTVIP V domain 2: DVKVTQSSRYLVKRTGEKVFLECVQDMDHENMFWYRQDPGLGLRLIYFSYDVKMKEKGDIPEGYSVSREKKERFSLILESASTNQTSMYLCASSLWGVNTEAFFGQGTRLTVV: recognises
- PN41822 (TCR, V domains shown, stained with anti-mouse TCR constant region H57-597; full-length chains on transfected CHO cells; also called TCR No. 32) V domain 1: AQTVTQSQPEMSVQEAETVTLSCTYDTSESDYYLFWYKQPPSRQMILVIRQEAYKQQNATENRFSVNFQKAAKSFSLKISDSQLGDAAMYFCAYRSATGNQFYFGTGTSLTVIP V domain 2: DVKVTQSSRYLVKRTGEKVFLECVQDMDHENMFWYRQDPGLGLRLIYFSYDVKMKEKGDIPEGYSVSREKKERFSLILESASTNQTSMYLCASSLWALNTEAFFGQGTRLTVV: recognises
